From: the supplement of paper PMC9112550

system: Escherichia coli TOP10; assay: shrunken log2 fold change of peptide-encoding DNA abundance (4.5 h post-induction vs induction); higher = less antimicrobial activity (less host growth inhibition); settings: time post-induction: 4.5 h; library: site-saturation at positions 5, 18, 19, 20;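 further: peptides expressed intracellularly from a pBAD plasmid library in pooled LB shake-flask culture, induced with 0.3% L-arabinose, DNA abundance read by NGS, three biological replicates, DESeq2 with apeglm shrinkage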
Property label: shrunken log2 fold change
Numbers only.

The following sequences have reported results that may help.
monomer_sequence=RRIRPRPPRLPRPRPRPGKQPRP value_measured=-0.0793
monomer_sequence=RRIRYRPPRLPRPRPRPWGEPRP value_measured=-0.102
monomer_sequence=RRIRLRPPRLPRPRPRPRAAPRP value_measured=0.417
monomer_sequence=RRIRQRPPRLPRPRPRPMLPPRP value_measured=-0.384
monomer_sequence=RRIRPRPPRLPRPRPRPKLAPRP value_measured=0.405

Dear reader, for each entry below, please note its shrunken log2 fold change.
1. RRIRCRPPRLPRPRPRPFVAPRP
2. RRIRRRPPRLPRPRPRPGDWPRP
3. RRIRGRPPRLPRPRPRPEAVPRP
4. RRIRTRPPRLPRPRPRPHAMPRP
5. RRIRWRPPRLPRPRPRPSSYPRP
6. RRIRSRPPRLPRPRPRPMYLPRP
7. RRIRPRPPRLPRPRPRPWRLPRP
8. RRIRQRPPRLPRPRPRPFATPRP

-0.159
0.465
2.27
-0.31
-0.123
-0.0356
0.0836
0.275

Required: shrunken log2 fold change, one value per sequence below.
1. RRIRIRPPRLPRPRPRPEFVPRP
2. RRIRVRPPRLPRPRPRPLFPPRP
3. RRIRTRPPRLPRPRPRPDSFPRP
4. RRIRIRPPRLPRPRPRPNWNPRP

1. -0.0754
2. 0.0958
3. 0.033
4. -0.388

Quick request: shrunken log2 fold change for each listed item, please.
1. RRIRDRPPRLPRPRPRPDWWPRP
2. RRIRVRPPRLPRPRPRPKNRPRP
3. RRIRRRPPRLPRPRPRPCHSPRP
4. RRIRKRPPRLPRPRPRPVRGPRP

1. 0.0503
2. 0.137
3. 0.00408
4. 0.732
